# Tested on: MS2 coat protein
# experimental_details: apparent Kd, MS2 coat protein; higher = weaker binding; RNA-MaP array; theophylline 2 mM where present
# settings: designed as: ON switch for theophylline; no ligand
Please enter class 1 where apparent Kd is greater than or equal to 300 nM, and class 0 where it is lower.

# example entries with known answers
AGUGUAUCCAUCGAUACCAGCCACAACGUAACAUACACAUGAGGAUCACCCAUGUUGUGUGGCCCUUGGCAGCGGUGCCUGUGUA; class 0
ACUUCAUGAGGUGAUACCAGCCAAUGACAUGAGGACAUGAGGAUCACCCAUGUUUAUGUAGGCCCUUGGCAGCACUGUAACAUGA; class 0
AGUACUCGAACGGAUACCAGCCGGACAUGAGGAUCACCCAUGUCCUACCAAUGUUCGGUUGGCCCUUGGCAGCCGUUCGUGUACA; class 1
ACUUUGUCGGGUGAUACCAGCCUCGGCACAUCUCGUGCCGAACAUGAGGAUCACCCAUGUGGCCCUUGGCAGCACAUGACAACUC; class 1
AGUGUAUCCAUCGAUACCAGCCACCACCGAUAGACCACAUGAGGAUCACCCAUGUUGGGUGGCCCUUGGCAGCGGUGGCUGUGUA; class 0

In: Does the reported apparent Kd for UAUAACAUGAGGAUCACCCAUGUAAGUGAUACCAGAUAAAUAAUAGUCCCUUGGCAGCAUAUUGGGAAAAUGUAUAAUAUAUAUU fall at or above the 300 nM mark?
Out: class 0

In: Does the reported apparent Kd for GGGCCUGUAGGCAGGCCCACAGCGGGUGAUACCAGCAAUAAAACUUGCCCUUGGCAGCACACAGCUACAUGAGGAUCACCCAUGU fall at or above the 300 nM mark?
Out: class 0

---

Entries and their apparent Kd
# System: MS2 coat protein
# experimental_details: apparent Kd, MS2 coat protein; higher = weaker binding; RNA-MaP array; tryptophan 2.4 mM where present
# settings: ligand present: tryptophan; designed as: OFF switch for tryptophan
The answer is to be given in nM; state only the numeric part.

// below: answered sequences
GUUAUUAGAAAACUAAUAACAGUGGGUGAACGAGGACCGGUACGGCCGCCACUCGGACAUGAGGAUCACCCAUGUCCAUGUGAAA; 32.7
CUAUAAGUACCGGUCCUCAGAUCCUCAUGACGAGGACCGGUACGGCCGCCACUCGAAACAUGAGGAUCACCCAUGUAAUAAUAUU; 19.3
CCUAUGCAGUCGGCCGCCACUGAACAUGAGGAUCACCCAUGUAAUUAAAAUUAAGGUCCUAAAAUCAGGACCGGGACUGUAUAGG; 237

In: Which apparent Kd value is on record for ACCUGCGUUUGUUUCUUUCUGACGCAGGUUCGAGGACCGGUACGGCCGCCACUCGGACAUGAGGAUCACCCAUGUUUGACAUGGG ?
Out: 17.3

---

# Test system: MS2 coat protein
# experimental_details: apparent Kd, MS2 coat protein; higher = weaker binding; RNA-MaP array; FMN 200 µM where present
# settings: ligand present: flavin mononucleotide; designed as: OFF switch for flavin mononucleotide
Please enter yes (1) where apparent Kd is greater than or equal to 0.05 µM, and no (0) where it is lower.

# example entries with known answers
AACUGACAUGAGGAUCACCCAUGUCAGGAUAUGAUUUGACGAAAUAAAAUAAGUCAUAUCAGAAGGGACAUGGA; no (0)
GCAAGAACGGGUCAGUCCCAGAUGAGAAGGGUAGGUGGCGAUGAGUACAUGAGGAUCACCCAUGUACAGGAUAUCAUCAUUGUA; no (0)
GUGAGGUCAGGAUAUGCAUGGCGGGACUUGCGUCGUGGCGUGGAGAAGGGACAUGAGGAUCACCCAUGUGGAGC; yes (1)

In: Does the reported apparent Kd for CCUCUUGGGCAAGGAUAUCCUGCGCGGUUCCGGUUCGUGUCUGUCACAUGAGGAUCACCCAUGUGGGAGAAGGUGCCUGCGGUC fall at or above the 0.05 µM mark?
Out: no (0)

---

# Test system: MS2 coat protein
# experimental_details: apparent Kd, MS2 coat protein; higher = weaker binding; RNA-MaP array; theophylline 2 mM where present
# settings: designed as: ON switch for theophylline; no ligand
Entries and their apparent Kd
The answer is to be given in µM; state only the numeric part.

// below: answered sequences
CGAUCUUUCGAAAGAAGGAUCUUGUCUGAUACCAGAGACGAAAGUCUCCCUUGGCAGCAGUGCCAACAUGAGGAUCACCCAUGUU; 0.0145
GGUAGCAGGACUGAUACCAGUCCAGCGAAUCAUACGACGCAACAUGAGGAUCACCCAUGUGACCCUUGGCAGCAGACUGCUACCG; 0.0247
AGAACAAAACUAAAUAAACAACUGGGUGAUACCAGCACAUGUGCGUGCCCUUGGCAGCAUCCGGCCACAUGAGGAUCACCCAUGU; 0.074
GGAAUAACGAUUGAUACCAGCAUGUUAACAUGAGGAUCACCCAUGUUAAGGAUAACAUAAUGCCCUUGGCAGCAACGGAAACCCG; 0.0213
UCGUGUAUAUCGGAUACCAGUGAGAAGGAUACAUGAGGAUCACCCAUGUGAGUUGAUGUACACCCUUGGCAGCUGUAUAUAUCUA; 0.0499
GCACCAGGUACGGAUACCAGCUGCCAGCGUUACAUGAGGAUCACCCAUGUGAUCUGAAGUAGCCCUUGGCAGCUGUACCUGGUGC; 0.0212

In: Which apparent Kd value is on record for ACAUGAGGAUCACCCAUGUAAUGGCACGAUACCAGCUGAUCCCGUGGCCCUUGGCAGCGUCCGGUGUGGUCCGCCGGGUUGGACG ?
Out: 0.0231

---

# Test system: MS2 coat protein
# experimental_details: apparent Kd, MS2 coat protein; higher = weaker binding; RNA-MaP array; FMN 200 µM where present
# settings: designed as: OFF switch for flavin mononucleotide; no ligand
quantity_measured: apparent Kd (nM)
The answer is to be given in nM; state only the numeric part.

AAUAAUGUGAAGGAUAUCACUAGCGAUAGCUAGUGAGAAGGUCACACAUGAGGAUCACCCAUGUGUUCCAAUAA; 43.2
CCGUUACAUGAGGAUCACCCAUGUGAGGAUAUCGGUGUGACUGGCAGCGUGCGGGACUCGAGAAGGCACUGGGC; 71.2
GUGCAGAUGUAAGGAUAUCGACUGGAAUACAGUCGAGAAGGUACAUGAGGAUCACCCAUGUAAAUGAAAGAUAAUAAACUGCAC; 15.3
CGGUUGCGCUCCUAUGGUUUGAACAUGAGGAUCACCCAUGUACAGGAUAUAGUAAGAACGCCUUACUAGAAGGGUACGUUCUCG; 18.9
GGACAUGAGGAUCACCCAUGUCGAACAUGAGGAUCACCCAUGUAGGAUAUGCUACUCAAAGAGUAGCAGAAGGACAUGUGCCUU; 53.7
UUCUUACAUGAGGAUCACCCAUGUCAGGAUAUCUCCACACUGCGCUUGCGCAGUGUAUAGAGAAGGGACAGGCU; 49.4

Let's switch to this sequence now.
In: Which apparent Kd value is on record for GUGAGGUCAGGAUAUGCAUGGCGGGACUUGCGUCGUGGCGUGGAGAAGGGACAUGAGGAUCACCCAUGUGGAGU ?
Out: 87.6

---

Entries and their apparent Kd
# Tested on: MS2 coat protein
# experimental_details: apparent Kd, MS2 coat protein; higher = weaker binding; RNA-MaP array; FMN 200 µM where present
# settings: ligand present: flavin mononucleotide; designed as: ON switch for flavin mononucleotide
The answer is to be given in nM; state only the numeric part.

// below: answered sequences
ACCUCGUACACAGGAUAUGAUUACUUGCAGCCUGCGUUGACAUGAGGAUCACCCAUGUGGACUGAUCAGAAGGGUGAACGGAAG; 112
GGAGCACAUAUUAACAUGAGGAUCACCCAUGUCAAAAGACAUGAGGAUAUGGAUCCGAAAAGGAUCCAGAAGGCAUGGUGCUCC; 14.3

In: Which apparent Kd value is on record for UCGACCAGCGCCAGUCAAACAUGAGGAUCACCCAUGUACUCCAGAAGGCCGCCCAAGAACGGAGUGGAGGAUAUGGAGGUUCUC ?
Out: 36.7

In: Which apparent Kd value is on record for CCGAUUAGCACAGGAUAUGGGAAUUCGUAGUUUCCAGAAGGGUGAGCCAAUACAUGAGGAUCACCCAUGUGCGGUAGGUCGAGA ?
Out: 60.7

In: Which apparent Kd value is on record for GCGAUUAAGUAGAAGGUACAAUAUAUAUCAUUGUAAGGAUAUACUUACAUGAGGAUCACCCAUGUUAAAGGAUAUAAUAAUCGC ?
Out: 8.98

In: Which apparent Kd value is on record for UGUUACUAGUAAGGAUAUACUUGCGAUAAGCUUGUAGAAGGUACAGUCUUUUGUAUAACACGUUUACAUGAGGAUCACCCAUGU ?
Out: 6.01

In: Which apparent Kd value is on record for GGGUACAUCGGAGGAUAUCAUGUAAAUACAUGAGGAUCACCCAUGUCGAUGGAUACAUCGGAGAUUGAGAAGGCCGAUGUACCG ?
Out: 5.34

In: Which apparent Kd value is on record for UGGUACUAGGGAGGAUAUGGGAAGAUACAUGAGGAUCACCCAUGUUUAAGAAUGCCGAGAAGCAACUAGAAGGCCCUAGUACCU ?
Out: 19.5

In: Which apparent Kd value is on record for UGGAUGUAGGAGAAGGAGGACUUCAUGAGGAUCACCCAUGUGUUAGGACUUAGGAUAUUUGACGACAUGAGGAUCACCCAUGUG ?
Out: 58.4

In: Which apparent Kd value is on record for GUGCUGCAGCUGUGCACGAGACAUGAGGAUCACCCAUGUGACAGAAGGGACUUGUUAAAGGUAGGUCAGGAUAUGUCUUAAAAG ?
Out: 37.3

In: Which apparent Kd value is on record for CGUCGCUGUCGAGAGGAUAUGCGGUGGUGGACAUGAGGAUCACCCAUGUUAGCGAUAGCAUCACGGUAGAAGGCUCUUACGACUG ?
Out: 20.6

In: Which apparent Kd value is on record for GCCAUCGUAUGAGGAUAUGACACCGAAACGGUGUCAGAAGGCAUGUCGAUAGACAUGAGGAUCACCCAUGUAUUAACGAUGGCA ?
Out: 94.2

In: Which apparent Kd value is on record for GACUCGCGCACAGGAUAUCCACAGAGCGGACGUGGAGAAGGGUGACAUGAGGAUCACCCAUGUACGUGAGUCUAGAUCACUUCC ?
Out: 31

In: Which apparent Kd value is on record for GUCGGAAACGACAAAGUAGCAUAGGAGGAUAUUCAUUAAAACAUGAGGAUCACCCAUGUAAAUUGGGAGAAGGCCUAUGCUACA ?
Out: 5.26

// provenance: the EternaBench riboswitch data
